Hi there, I'd appreciate the recorded pIC50 for every entry that follows.
# system: S1P3 receptor (Homo sapiens)
# Sequence (Q99500 whole entry): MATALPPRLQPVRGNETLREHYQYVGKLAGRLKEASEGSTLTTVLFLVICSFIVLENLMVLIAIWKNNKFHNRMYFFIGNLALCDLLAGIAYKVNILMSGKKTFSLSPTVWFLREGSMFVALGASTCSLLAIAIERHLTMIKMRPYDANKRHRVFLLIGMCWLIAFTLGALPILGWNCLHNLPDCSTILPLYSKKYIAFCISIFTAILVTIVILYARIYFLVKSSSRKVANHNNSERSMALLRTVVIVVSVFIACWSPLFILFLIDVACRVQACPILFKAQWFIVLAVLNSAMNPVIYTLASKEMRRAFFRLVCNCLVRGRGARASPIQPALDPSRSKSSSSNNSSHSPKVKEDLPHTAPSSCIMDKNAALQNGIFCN
# assay.remarks: GTP γ35S binding assay, antagonist mode
# setup.conditions: antagonist assay, reaction mixture contained 10 nM S1P; membranes; read-out: S1P3 GTPγ^35S IC50
# Method: B. Novel compounds were synthesized and tested for S1P3 activity using the GTP γ^35S binding assay. GTP γ^35S binding was measured in the medium containing (mM) HEPES 25, pH 7.4, MgCl2 10, NaCl 100, dithiothreitol 0.5, digitonin 0.003%, 0.2 nM GTP γ^35S, and 5 μg membrane protein in a volume of 150 μl. […] Filters were dried and mixed with scintillant, and counted for ^35S activity using a β-counter. […] Binding data were analyzed using a non-linear regression method. […]
Notebook: values listed as pIC50 are -log10 of the concentration (mol/L).

Record O=C(NC(Nc1ccc(Cl)cc1)C(F)(F)C(F)(F)C(F)(F)C(F)(F)F)c1ccc(Br)cn1 (centres unmarked) [Compound-29] . Reported pIC50: 8.26

Record CCC(Cl)(Cl)C(NC(=O)c1ccc(Br)cn1)Nc1ccc(Cl)cc1 (centres unmarked) [Compound-27] . Reported pIC50: 7.25

Record O=C(NC(Nc1cnc(Cl)nc1)C(F)(F)C(F)(F)C(F)(F)C(F)(F)C(F)(F)C(F)F)c1ccc(Br)cn1 (centres unmarked) [Compound-37] . Reported pIC50: 7.23

Record O=C(NC(Nc1ccc(Cl)cc1)c1ccc(Cl)cc1)c1ccc(Br)cn1 (centres unmarked) [Compound-7] . Reported pIC50: 6.94

Record O=C(NC(Nc1ccc(Cl)cc1)C(=O)c1cccc2ccccc12)c1ccc(Br)cn1 (centres unmarked) [Compound-1] . Reported pIC50: 8.00
